System: HIV-1ADA (CCR5-tropic) pseudovirus
protocol: Single-cycle infection assay in U87-CD4-CCR5 cells
applied-conditions: U87/CD4/CCR5, read-out: IC50 against CCR5- and CXCR4-tropic HIV-1
pIC50: −log10 of the molar value.
value-kind: pIC50

In: What does the data say about its pIC50? Entry: Cc1nc(C(NC(=O)c2ccc(-c3ccc(Cl)cc3)[nH]2)C2CCCCN2)sc1CO (mixture of isomers)
Out: 5.62 to 5.77

====

Test system: HIV-1 Env pseudoviruses
Type: cell-based
applied-conditions: subtype A/G, NIH #11601, CRF02_AG clone 263
value-kind: IC50 (µM)
Please reply with the bare figure in µM and do not write the unit itself.

In: What does the data say about its IC50? Entry: CC1(C)CC(NC(=O)C(=O)Nc2ccc(Cl)cc2)CC(C)(C)N1
Out: 7

====

Test system: HIV-1 Env pseudoviruses
Type: cell-based
applied-conditions: subtype D, NIH #11912, QA013.70I.ENV.M12
value-kind: pIC50
Entry type: numeric. Quantity: pIC50, the -log10 of concentration in molar units.

In: What does the data say about its pIC50? Entry: CC1(C)CC(NC(=O)C(=O)Nc2ccc(Cl)cc2)CC(C)(C)N1
Out: 5.27

====

Tested on: HIV-1 Env pseudoviruses
Format: cell-based
applied-conditions: subtype B, NIH #11022, PVO, clone 4
value-kind: IC50 (µM)
Please reply with the bare figure in µM and do not write the unit itself.

In: What does the data say about its IC50? Entry: CC1(C)CC(NC(=O)C(=O)Nc2ccc(Cl)cc2)CC(C)(C)N1
Out: 3.5

====

Tested on: laboratory-adapted HIV-1 strains
protocol: microbe, parasite or virus in culture
Assay type: cell-based
applied-conditions: fusion inhibitor-resistant isolate pNL4-3 gp41(36G)V38E,N42S, subtype B, MT-2, X4
value-kind: pIC50
Entry type: numeric. Quantity: pIC50, the -log10 of concentration in molar units.

In: What does the data say about its pIC50? Entry: CC1(C)CC(NC(=O)C(=O)Nc2ccc(Cl)cc2)CC(C)(C)N1
Out: 4.96

====

Tested on: MT-2 cells
protocol: Cytotoxicity in MT-2 cells
Type: cell-based
value-kind: CC50

In: Write down the reported CC50 of CC1(C)CC(NC(=O)C(=O)Nc2ccc(Cl)cc2)CC(C)(C)N1 , test system: MT-2 cells.
Out: > 280 µM

====

System: HIV-1 Env pseudoviruses
Format: cell-based
applied-conditions: subtype B, NIH #11035, PREJ04541 clone 67
value-kind: IC50 (µM)
Please reply with the bare figure in µM and do not write the unit itself.

In: What does the data say about its IC50? Entry: CC1(C)CC(NC(=O)C(=O)Nc2ccc(Cl)cc2)CC(C)(C)N1 [NBD-556]
Out: 3.4

====

Kindly state pIC50 for each of the entries shown.
Test system: HIV-1HXB2 (CXCR4-tropic) pseudovirus
protocol: Single-cycle infection assay in U87-CD4-CXCR4 cells
applied-conditions: U87-CD4-CXCR4, HIV-1HXB2
Entry type: numeric. Quantity: pIC50, the -log10 of concentration in molar units.

In: Write down the reported pIC50 of CC1(C)CC(NC(=O)C(=O)Nc2ccc(Cl)cc2)CC(C)(C)N1 , test system: HIV-1HXB2 (CXCR4-tropic) pseudovirus.
Out: 5.02

In: Write down the reported pIC50 of Cc1nc(C(NC(=O)c2ccc(-c3ccc(Cl)cc3)[nH]2)C2CCCCN2)sc1CO (stereo not drawn) [NBD-11021A] , test system: HIV-1HXB2 (CXCR4-tropic) pseudovirus.
Out: 5.52

In: Write down the reported pIC50 of Cc1nc(C(NC(=O)c2ccc(-c3ccc(Cl)cc3)[nH]2)C2CCCCN2)sc1CO (mixture of isomers) [NBD-11021] , test system: HIV-1HXB2 (CXCR4-tropic) pseudovirus.
Out: 5.62

====

Test system: laboratory-adapted HIV-1 strains
protocol: microbe, parasite or virus in culture
Assay type: cell-based
applied-conditions: MT-2, HIV-1IIIB
value-kind: IC50 (nM)
Please reply with the bare figure in nM and do not write the unit itself.

In: What does the data say about its IC50? Entry: Cc1nc(C(NC(=O)c2ccc(-c3ccc(Cl)cc3)[nH]2)C2CCCCN2)sc1CO (stereo not shown) [NBD-11021A]
Out: 1300

====

System: TZM-bl cells
protocol: Cytotoxicity in TZM-bl cells
Assay type: cell-based
value-kind: CC50

In: What does the data say about its CC50? Entry: CC1(C)CC(NC(=O)C(=O)Nc2ccc(Cl)cc2)CC(C)(C)N1
Out: ~60 µM

====

Test system: fusion between MAGI-CCR5 and HL 2/3 cells
protocol: HIV-1 cell-cell fusion assay
Type: cell-based
applied-conditions: read-out: IC50, cell-cell fusion assay
value-kind: IC50

In: What does the data say about its IC50? Entry: Cc1nc(C(NC(=O)c2ccc(-c3ccc(Cl)cc3)[nH]2)C2CCCCN2)sc1CO (mixture of isomers)
Out: 9.8 µM

====

Tested on: HIV-1 Env pseudoviruses
Type: cell-based
applied-conditions: subtype A/G, NIH #11602, CRF02_AG clone 266
value-kind: pIC50
Entry type: numeric. Quantity: pIC50, the -log10 of concentration in molar units.

In: What does the data say about its pIC50? Entry: CC1(C)CC(NC(=O)C(=O)Nc2ccc(Cl)cc2)CC(C)(C)N1
Out: 5.34

====

target-of-assay: HIV-1 reverse transcriptase (RT) (Human immunodeficiency virus type 1 group M subtype B)
protocol: HIV-1 reverse transcriptase
applied-conditions: read-out: IC50, HIV-1 reverse transcriptase (RT) assay
value-kind: IC50

In: What does the data say about its IC50? Entry: CC1(C)CC(NC(=O)C(=O)Nc2ccc(Cl)cc2)CC(C)(C)N1 [NBD-556]
Out: > 200 µM

====

System: PBMC
protocol: Cytotoxicity in PBMCs
Assay type: cell-based, human
value-kind: CC50

In: Write down the reported CC50 of CC1(C)CC(NC(=O)C(=O)Nc2ccc(Cl)cc2)CC(C)(C)N1 , test system: PBMC.
Out: > 280 µM

====

Test system: HIV-1 Env pseudoviruses
Type: cell-based
applied-conditions: subtype A2/D, NIH #11906, QG393.60M.ENV.B7
value-kind: pIC50
Entry type: numeric. Quantity: pIC50, the -log10 of concentration in molar units.

In: What does the data say about its pIC50? Entry: CC1(C)CC(NC(=O)C(=O)Nc2ccc(Cl)cc2)CC(C)(C)N1
Out: 5.46

====

System: HIV-1 Env pseudoviruses
Type: cell-based
applied-conditions: subtype C, NIH #11317, CAP210.2.00.E8
value-kind: IC50 (µM)
Please reply with the bare figure in µM and do not write the unit itself.

In: What does the data say about its IC50? Entry: CC1(C)CC(NC(=O)C(=O)Nc2ccc(Cl)cc2)CC(C)(C)N1 [NBD-556]
Out: 5.3

====

Tested on: A-MLV
protocol: microbe, parasite or virus in culture
Assay type: cell-based
applied-conditions: control, A-MLV envelope pseudovirus
pIC50: −log10 of the molar value.
value-kind: pIC50

In: Write down the reported pIC50 of CC1(C)CC(NC(=O)C(=O)Nc2ccc(Cl)cc2)CC(C)(C)N1 [NBD-556] , test system: A-MLV.
Out: < 4.22

====

Tested on: laboratory-adapted HIV-1 strains
protocol: microbe, parasite or virus in culture
Type: cell-based
applied-conditions: laboratory strain MN, subtype B, MT-2, X4
value-kind: pIC50
Entry type: numeric. Quantity: pIC50, the -log10 of concentration in molar units.

In: What does the data say about its pIC50? Entry: CC1(C)CC(NC(=O)C(=O)Nc2ccc(Cl)cc2)CC(C)(C)N1 [NBD-556]
Out: 4.80

====

Tested on: HIV-1 Env pseudoviruses
Format: cell-based
applied-conditions: TZM-bl, HIV-1HXB2
value-kind: IC50 (µM)
Please reply with the bare figure in µM and do not write the unit itself.

In: What does the data say about its IC50? Entry: Cc1nc(C(NC(=O)c2ccc(-c3ccc(Cl)cc3)[nH]2)C2CCCCN2)sc1CO (centres unmarked) [NBD-11021B]
Out: 2.4

In: What does the data say about its IC50? Entry: CC1(C)CC(NC(=O)C(=O)Nc2ccc(Cl)cc2)CC(C)(C)N1
Out: 6.9
